FON (Fold Over Negative) values by entry
Molecular target: T1, mouse TIGIT expressed on cells (mouse, UniProt P86176 29-249)
T1 construct: whole, on cells; on Jurkat cells engineered to express mouse TIGIT; also called mTIGIT; Jurkat-mTIGIT
T1 sequence (looked up): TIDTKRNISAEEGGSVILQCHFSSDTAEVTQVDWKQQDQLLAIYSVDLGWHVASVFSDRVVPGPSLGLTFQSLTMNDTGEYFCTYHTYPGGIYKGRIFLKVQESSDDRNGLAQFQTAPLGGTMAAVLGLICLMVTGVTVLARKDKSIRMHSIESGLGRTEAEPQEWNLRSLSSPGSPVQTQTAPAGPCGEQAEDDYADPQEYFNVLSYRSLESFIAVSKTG
Assay: flow cytometry, 100 nM Ab, Jurkat-mTIGIT vs untransfected
Procedure: Antibodies were incubated with the cells for 20 min at 4° C. in FACS buffer. […] Geometric mean fluorecence intensity was analysed using LSR BD Fortessa. Cell binding was recorded as the median florescence intensity of PE on the transfected line compared to the un-transfected line for each antibody (Table 3).
parameter: FON (Fold Over Negative) (fold)

[[record]]
binder = "anti-TIGIT antibody clone 29520 (IgG) (antibody, V domains shown) VH: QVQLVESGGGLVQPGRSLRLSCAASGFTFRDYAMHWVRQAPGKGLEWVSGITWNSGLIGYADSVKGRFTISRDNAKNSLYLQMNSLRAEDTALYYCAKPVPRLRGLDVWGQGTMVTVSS VL: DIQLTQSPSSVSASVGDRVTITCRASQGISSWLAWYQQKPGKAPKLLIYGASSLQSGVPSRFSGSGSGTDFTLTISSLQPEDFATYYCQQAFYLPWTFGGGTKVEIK"
parameter = "FON (Fold Over Negative)"
unit_string = "fold"
number = 535

[[record]]
binder = "anti-TIGIT antibody clone 26518 (IgG) (antibody, V domains shown, parent clone) VH: EVQLVESGGGLVQPGGSLRLSCAASGFTFSSYGMSWVRQAPGKGLEWVANIKQDGSEKYYVDSVKGRFTISRDNAKNSLYLQMNSLRAEDTAVYYCARVSYYYDSSKLRWAEYFQHWGQGTLVTVSS VL: EIVLTQSPATLSLSPGERATLSCRASQSVSSYLAWYQQKPGQAPRLLIYDASKRATGIPARFSGSGSGTDFTLTISSLEPEDFAVYYCQQVHNFPLTFGGGTKVEIK"
parameter = "FON (Fold Over Negative)"
unit_string = "fold"
number = 233

